Reference for the values: PubChem BioAssay AID2060910

What viability, T/C was measured for each of the following?
Tested on: 242566-281-R-J2-PDC complex spheroid viability;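 note: spheroids exposed to compound for 7 days before readout; 100% = DMSO vehicle control wells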
Assay: Anticancer human tumor 242566-281-R-J2-PDC patient-derived pancreatic carcinoma cell line growth inhibition [RAS]
Conditions: second compound 0.1 µM; first compound 3.16 µM; hits give low values
Numbers only here, please. The scale is %.

# get_value(readout= viability, T/C, system= 242566-281-R-J2-PDC complex spheroid viability) for CC(Nc1ccc2c(c1)OCCn1cc(N3C(=O)OCC3C(F)F)nc1-2)C(N)=O (stereo not drawn) + C#Cc1c(F)ccc2cc(O)cc(-c3ncc4c(N5CC6CCC(C5)N6)nc(OCC56CCCN5CC(F)C6)nc4c3F)c12 13.2

# get_value(readout= viability, T/C, system= 242566-281-R-J2-PDC complex spheroid viability) for CC(C)NCC(C(=O)N1CCN(c2ncnc3c2C(C)CC3O)CC1)c1ccc(Cl)cc1 (stereo not drawn) + C=CC(=O)N1CCN(c2nc(OCC3CCCN3C)nc3c(F)c(-c4nc(N)cc(C)c4C(F)(F)F)c(Cl)cc23)C(C)C1 87.5

# get_value(readout= viability, T/C, system= 242566-281-R-J2-PDC complex spheroid viability) for CCC(CC)c1cc(NC2CCC(N)C2)n2nccc2n1 (stereo not drawn) + C=CC(=O)N1CCN(c2nc(OCC3CCCN3C)nc3c(F)c(-c4nc(N)cc(C)c4C(F)(F)F)c(Cl)cc23)C(C)C1 82.5
